Assayed Target: Glutamate NMDA receptor
Assay Name: Binding affinity for N-methyl-D-aspartate glutamate receptor was measured through displacement of [3H]25-6981
Quantity: Ki (nM)

Data request, read-out Ki, for CCCCCNC1=NCCN1OCc1ccccc1C
34

Also need CCCCNC1=NCCCN1OCc1ccccc1 , thanks.
750

[I] c1ccc(CNC2=NCCN2OCc2ccccc2)cc1
[II] CCCCCNC1=NCCN1OCc1ccccc1OC
Parameter metric = Ki. Return the lower-valued option from I and II . Record your answer as the label of the chosen record.
I
(I: 130 nM, II: 280 nM)

[I] CCCCCNC1=NCCN1OCc1cccc(OC)c1
[II] c1ccc(CON2CCN=C2NC2CC2)cc1
[III] CC(C)NC1=NCCN1OCc1ccccc1
[IV] CCCCCNC1=NCCN1OCc1ccc(OC)cc1
[V] c1ccc(COCCNC2=NCCN2OCc2ccccc2)cc1
Please produce an ascending ranking of these compounds based on Ki. Respond with the label ranking, as requested.
IV, II, I, V, III

[A] CCCCCNC1=NCCN1OCCCc1ccccc1
[B] CCCCCNC1=NCCN1OCc1cccc(F)c1
Parameter metric = Ki. Return the lower-valued option from A and B . Record your answer as the label of the chosen record.
B
(B: 23 nM, A: 980 nM)
